system: PC-3 prostate; assay: NCI-60 one-dose screen, 48 h; conditions: 10 µM
This is part of a sample that, as a whole, favours compounds with a hit. Of some 83,000 tested, about 20% had one in any assay. Activity calls are given as the source filed them. Rule for the calls: active = growth percent below 10; inactive = the rest.
Answer with one of the outcomes label 1 = active, label 0 = inactive

Completed entries (count: 6):
>  <compound>
CCCn1c(=O)c2[nH]c(-c3ccc(OCc4nc5ccc(F)cc5[nH]4)cc3)nc2n(CCC)c1=O

>  <tested.on>
PC-3 prostate

>  <discrete.label>
label 0

$$$$
>  <compound>
NC(=Nc1ccc(OCCCCCCCCn2ccnn2)cc1)c1ccccc1

>  <tested.on>
PC-3 prostate

>  <discrete.label>
label 0

$$$$
>  <compound>
CN1CCc2c(sc3ncnc(N/N=C/c4ccc5ccccc5c4)c23)C1

>  <tested.on>
PC-3 prostate

>  <discrete.label>
label 0

$$$$
>  <compound>
O=C(CSc1nnc(-c2c[nH]c3ccccc23)n1-c1ccccc1)Nc1ccc(C(=O)/C=C/c2ccc(Br)cc2)cc1

>  <tested.on>
PC-3 prostate

>  <discrete.label>
label 0

$$$$
>  <compound>
Cc1ccc(CSc2nc(Cl)c(C#N)c(-c3ccc(F)cc3)n2)cc1

>  <tested.on>
PC-3 prostate

>  <discrete.label>
label 0

$$$$
>  <compound>
CONC[C@]1(C)C=C2C(=O)[C@](C)(O)C3(CC3)C(C)=C2[C@H]1O

>  <tested.on>
PC-3 prostate

>  <discrete.label>
label 1

$$$$

[ask] Returns: the outcome recorded for CCOC(=O)CNC(=O)CN(Cc1ccccc1)C(=O)[C@@]1(C)CCC[C@]2(C)[C@H]3CC4C(C(C)C)=C[C@]3(CC[C@H]21)[C@@H]1C(=O)CCC(=O)[C@H]41 in this assay.
[reply] label 0

[ask] What did this assay record as the result for COc1cccc(-c2nn(-c3ccccc3)cc2-c2ccnc(NCCCNC(=O)Nc3ccc(F)cc3)c2)c1 ?
[reply] label 1

[ask] Dear all, I need the recorded test outcome for C=C1CCC2C3(C)COC(c4c(F)cccc4F)OC3CCC2(C)C1CC(O)C1=CCOC1=O (centres undefined) , thank you.
[reply] label 0

----------
system: COLO 205 colon; assay: NCI-60 one-dose screen, 48 h; details: 10 µM
The panel holds about 83,000 compounds, 20% with a hit somewhere; the sample as a whole holds those more often. Active and inactive are the calls of the source. Rule for the calls: active = growth percent below 10; inactive = the rest.
# valid calls are active, inactive; nothing else

>  <compound>
O=C(Nc1ccc(I)cc1)Nc1nc2ccc([N+](=O)[O-])cc2s1

>  <discrete.label>
active

$$$$
>  <compound>
C[C@H]1[C@H](C)CC[C@]2(COC(=O)CCC(=O)NCC#CCN3CCNCC3)CC[C@]3(C)C(=CC[C@@H]4[C@@]5(C)CCCNC(C)(C)[C@@H]5CC[C@]43C)[C@H]12

>  <discrete.label>
active

$$$$
>  <compound>
O=c1[nH]c2ccccc2cc1CSc1ccc(Nc2nccc(-c3ccc(Cl)cc3)n2)cc1

>  <discrete.label>
active

$$$$

[ask] Returns: the outcome recorded for O=C1CCC(N2Cc3cc(CC(=O)Nc4ccc(N5CCCCC5)cc4)ccc3C2=O)C(=O)N1 (centres undefined) in this assay.
[reply] inactive

----------
test system: UACC-62 melanoma; test: NCI-60 one-dose screen, 48 h; settings: 10 µM
About 83,000 compounds went through this panel and 20% of them were active in at least one assay; those are over-represented in the sample as a whole. Activity calls are given as the source filed them. How the source made its calls: active means growth percent below 10; inactive means the rest.
Pick one: active, inactive

>  <molecule>
COc1cc(NC(=O)CSc2nnc(-c3ccc4nc(-c5ccc(Cl)cc5)[nH]c4c3)o2)cc(OC)c1OC

>  <discrete.label>
inactive

$$$$
>  <molecule>
O=C(NO)c1ccc(CN2CCN(c3nc(-c4ccccc4)c4ccccc4n3)CC2)cc1

>  <discrete.label>
active

$$$$
>  <molecule>
O=C1CCC(N2Cc3c(NCc4ccc(-c5ccccc5)cc4)cccc3C2=O)C(=O)N1 (configuration not stated)

>  <discrete.label>
inactive

$$$$

[ask] Field: outcome | Entry: COc1cccc(/C=C2\N=C(C)N(CCc3ccc(S(N)(=O)=O)cc3)C2=O)c1
[reply] inactive

[ask] What is the recorded call for this molecule in the test? [2H]C([2H])([2H])Oc1ccc2ncc(C#Cc3cncc(C(=O)Nc4ccc(CN5CCN(C)CC5)c(C(F)(F)F)c4)c3)n2n1
[reply] active

[ask] Give the logged outcome of this assay for the following molecule: CCCn1c(=O)c2[nH]c(-c3ccc(OCc4nc5ccc(C(F)(F)F)cc5[nH]4)cc3)nc2n(CCC)c1=O
[reply] active

[ask] Assay result, entry Cc1cc(C)nc(NS(=O)(=O)c2ccc(N/C(N)=N/c3nccc(-c4cccs4)n3)cc2)n1 — outcome?
[reply] inactive

All values here come from PubChem BioAssay (NCI).
